For reference, GI50 measured on HS 578T:
recorded metric: GI50 (µM)

chem smiles	experimental system	endpoint result
O=C(Nc1nc2ccc(F)cc2s1)c1cccnc1Nc1ccc(Cl)cc1Cl	HS 578T	3.25
O=C(Nc1nc2ccc(F)cc2s1)c1cccnc1Nc1ccc(Cl)cc1	HS 578T	1.99
COc1ccc2nc(NC(=O)c3cccnc3Nc3cc(OC)c(OC)c(OC)c3)sc2c1	HS 578T	5.77
COc1cc(Nc2ncccc2C(=O)Nc2nc3ccc(F)cc3s2)cc(OC)c1OC	HS 578T	2.57

###

Overview of recorded inhibition at 10 µM for various molecules
- Test system: HCT-15
- assay info: SRB percentage growth inhibition (NCI protocol)
- Assay type: cell-based
- reported conditions: Homo sapiens, 10 μM, 48 hrs exposure

molecule	inhibition at 10 µM (%)
O=C(Nc1nc2ccc([N+](=O)[O-])cc2s1)c1cccnc1Nc1ccc(F)cc1 [Compound 6]	55
COc1ccc(Nc2ncccc2C(=O)Nc2nc3ccc([N+](=O)[O-])cc3s2)cc1 [Compound 5]	47
O=C(Nc1nc2ccc([N+](=O)[O-])cc2s1)c1cccnc1Nc1cc(F)c(F)c(F)c1 [Compound 8]	62
CC(=O)O[C@H]1C(=O)[C@@]2(C)[C@H]([C@H](OC(=O)c3ccccc3)[C@]3(O)C[C@H](OC(=O)[C@H](O)[C@@H](NC(=O)c4ccccc4)c4ccccc4)C(C)=C1C3(C)C)[C@]1(OC(C)=O)CO[C@@H]1C[C@@H]2O [Pac, paclitaxel, reference compound]	37
O=C(Nc1nc2ccc([N+](=O)[O-])cc2s1)c1cccnc1Nc1ccc(Cl)cc1Cl [Compound 7]	75
O=c1[nH]cc(F)c(=O)[nH]1 [Compound 5-FU, 5-fluorouracil, reference compound]	44
O=C(Nc1nc2ccc([N+](=O)[O-])cc2s1)c1cccnc1Nc1ccccc1 [Compound 4]	66

###

Parameter 'readout' = GI50; parameter 'system' = MCF7.

chem smiles	endpoint unit	GI50
O=C(Nc1nc2ccc(F)cc2s1)c1cccnc1Nc1ccc(Cl)cc1Cl	µM	3.07
COc1cc(Nc2ncccc2C(=O)Nc2nc3ccc(F)cc3s2)cc(OC)c1OC	µM	3.23
COc1ccc2nc(NC(=O)c3cccnc3Nc3cc(OC)c(OC)c(OC)c3)sc2c1	µM	0.51
O=C(Nc1nc2ccc(F)cc2s1)c1cccnc1Nc1ccc(Cl)cc1	µM	2.38
